Reference for the values: ChEMBL document CHEMBL3259728

Catalogue of inhibition of growth at 10 µM readings, one per entry.
# Test system: SNB-19
# experiment_summary: Growth inhibition of human SNB19 cells at 10 uM after 48 hrs by SRB assay
# Assay type: functional
# recorded_conditions: SNB-19, 48 h, read-out: GI
# number only, unit % dropped from output

Consider the following illustrative entries.
smiles_entry: Cc1ccc(-c2nc3ccc(Cl)cc3c(=O)n2NC(=O)CNN)cc1
unit_descriptor: %
result_value: 22
//
smiles_entry: Cc1ccc(C(=O)Nc2ccc(Cl)cc2C(=O)Nc2ccccc2)cc1
unit_descriptor: %
result_value: 13
//
smiles_entry: Cc1ccc(-c2nc3ccc(Cl)cc3c3nnnn23)cc1
unit_descriptor: %
result_value: 11

What value of inhibition of growth at 10 µM has been reported for the following compound? Cc1ccc(-c2nc3ccc(Cl)cc3c(=O)n2/N=C/c2ccccc2)cc1
25

====

# experiment_summary: Growth inhibition of human UO31 cells at 10 uM after 48 hrs by SRB assay
# Type: functional
# recorded_conditions: UO-31, 48 h, read-out: GI
Listed next: entries and their corresponding inhibition of growth at 10 µM.

Record excerpt, results attached:
smiles_entry: Cc1ccc(C(=O)Nc2ccc(Cl)cc2C(=O)Nc2ccccc2)cc1
inhibition of growth at 10 µM: < 10%
--
smiles_entry: Cc1ccc(-c2nc3ccc(Cl)cc3c(=O)n2NC(=O)CN)cc1
inhibition of growth at 10 µM: 11%
--
smiles_entry: Cc1ccc(-c2nc3ccc(Cl)cc3c3nnc(S)n23)cc1
inhibition of growth at 10 µM: < 10%
--
smiles_entry: Cc1ccc(-c2nc3ccc(Cl)cc3c(=O)n2NC(=O)CNN)cc1
inhibition of growth at 10 µM: 25%
--
smiles_entry: Cc1ccc(-c2nc3ccc(Cl)cc3c3nnnn23)cc1
inhibition of growth at 10 µM: 24%
--
smiles_entry: Cc1ccc(C(=O)Nc2ccc(Cl)cc2C(=O)NCc2ccccc2)cc1
inhibition of growth at 10 µM: 24%
--
smiles_entry: Cc1ccc(-c2nc3ccc(Cl)cc3c(=O)n2/N=C/c2ccccc2)cc1
inhibition of growth at 10 µM: 33%
--
smiles_entry: Cc1ccc(C2=Nc3ccc(Cl)cc3C3=NNCC(=O)NN23)cc1
inhibition of growth at 10 µM: 18%

Record request: inhibition of growth at 10 µM value, item Cc1ccc(C(=O)Nc2ccc(Cl)cc2C(=O)Nc2ccccn2)cc1
13%

====

Entries and their inhibition of growth at 10 µM values follow.
# System: NCI-H226
# experiment_summary: Growth inhibition of human NCI-H226 cells at 10 uM after 48 hrs by SRB assay
# Type: functional
# recorded_conditions: NCI-H226, 48 h, read-out: GI
API: value field is a number in %; no unit string.

Below: 3 compounds and their reported inhibition of growth at 10 µM.
smiles_entry: Cc1ccc(-c2nc3ccc(Cl)cc3c(=O)n2NC(=O)CNN)cc1
inhibition of growth at 10 µM / %: 35

smiles_entry: Cc1ccc(-c2nc3ccc(Cl)cc3c3nnc(S)n23)cc1
inhibition of growth at 10 µM / %: 27

smiles_entry: Cc1ccc(-c2nc3ccc(Cl)cc3c(=O)n2/N=C/c2ccccc2)cc1
inhibition of growth at 10 µM / %: 14

Would you kindly share the measured inhibition of growth at 10 µM for Cc1ccc(-c2nc3ccc(Cl)cc3c(=O)n2NC(=O)CN)cc1 ?
11

====

# Tested on: CCRF-CEM
# experiment_summary: Growth inhibition of human CCRF-CEM cells at 10 uM after 48 hrs by SRB assay
# Assay type: functional
# recorded_conditions: read-out: GI
metric_name: inhibition of growth at 10 µM (%)
// units = %; emit number, no label

Consider the worked cases shown below.
smiles_entry: Cc1ccc(-c2nc3ccc(Cl)cc3c(=O)n2NC(=O)CN)cc1
unit_descriptor: %
result_value: 14
--
smiles_entry: Cc1ccc(C(=O)Nc2ccc(Cl)cc2C(=O)NCc2ccccc2)cc1
unit_descriptor: %
result_value: 27
--
smiles_entry: Cc1ccc(-c2nc3ccc(Cl)cc3c3nnc(S)n23)cc1
unit_descriptor: %
result_value: 12

Would you kindly look at the next entry?
Value lookup for inhibition of growth at 10 µM; key = Cc1ccc(C(=O)Nc2ccc(Cl)cc2C(=O)Nc2ccccn2)cc1
29

====

# System: M14
# experiment_summary: Growth inhibition of human M14 cells at 10 uM after 48 hrs by SRB assay
# Assay type: functional
# recorded_conditions: M14, 48 h, read-out: GI
List of inhibition of growth at 10 µM values.
Hi! Could you send only the number? It should be in %, unit omitted.

smiles_entry: Cc1ccc(-c2nc3ccc(Cl)cc3c(=O)n2NC(=O)CNN)cc1
result_value: 17

smiles_entry: Cc1ccc(C(=O)Nc2ccc(Cl)cc2C(=O)NCc2ccccc2)cc1
result_value: 26

smiles_entry: Cc1ccc(-c2nc3ccc(Cl)cc3c(=O)n2/N=C/c2ccccc2)cc1
result_value: 29

From here, focus on the item given below.
Which value of inhibition of growth at 10 µM has been reported for Cc1ccc(-c2nc3ccc(Cl)cc3c(=O)n2NC(=O)CN)cc1 in the records?
11

====

Below is a list of entries, each paired with its recorded inhibition of growth at 10 µM value.
# experiment_summary: Growth inhibition of human HCT15 cells at 10 uM after 48 hrs by SRB assay
# Assay type: functional
# recorded_conditions: HCT-15, 48 h, read-out: GI
Numeric only. Scale: %

smiles_entry: Cc1ccc(C(=O)Nc2ccc(Cl)cc2C(=O)NCc2ccccc2)cc1
result_value: 43

Could you tell me which inhibition of growth at 10 µM is on file for Cc1ccc(-c2nc3ccc(Cl)cc3c(=O)n2NC(=O)CNN)cc1 ?
16

Could you tell me which inhibition of growth at 10 µM is on file for Cc1ccc(C(=O)Nc2ccc(Cl)cc2C(=O)Nc2ccccn2)cc1 ?
14

Given Cc1ccc(C(=O)Nc2ccc(Cl)cc2C(=O)Nc2ccccc2)cc1 , state its recorded inhibition of growth at 10 µM.
11

I would be grateful if you could share the reported inhibition of growth at 10 µM for Cc1ccc(-c2nc3ccc(Cl)cc3c(=O)n2/N=C/c2ccccc2)cc1 .
14

====

# experiment_summary: Growth inhibition of human LOXIMVI cells at 10 uM after 48 hrs by SRB assay
# Assay type: functional
# recorded_conditions: LOX IMVI, read-out: GI
metric_name: inhibition of growth at 10 µM

smiles_entry: Cc1ccc(-c2nc3ccc(Cl)cc3c(=O)n2/N=C/c2ccccc2)cc1
metric_name: inhibition of growth at 10 µM
result_value: 11%
--
smiles_entry: Cc1ccc(-c2nc3ccc(Cl)cc3c(=O)n2NC(=O)CN)cc1
metric_name: inhibition of growth at 10 µM
result_value: < 10%
--
smiles_entry: Cc1ccc(C2=Nc3ccc(Cl)cc3C3=NNCC(=O)NN23)cc1
metric_name: inhibition of growth at 10 µM
result_value: < 10%
--
smiles_entry: Cc1ccc(-c2nc3ccc(Cl)cc3c(=O)n2NC(=O)CNN)cc1
metric_name: inhibition of growth at 10 µM
result_value: 27%
--
smiles_entry: Cc1ccc(-c2nc3ccc(Cl)cc3c3nnc(S)n23)cc1
metric_name: inhibition of growth at 10 µM
result_value: < 10%
--
smiles_entry: Cc1ccc(-c2nc3ccc(Cl)cc3c3nnnn23)cc1
metric_name: inhibition of growth at 10 µM
result_value: < 10%
--
smiles_entry: Cc1ccc(C(=O)Nc2ccc(Cl)cc2C(=O)Nc2ccccn2)cc1
metric_name: inhibition of growth at 10 µM
result_value: < 10%
--
smiles_entry: Cc1ccc(C(=O)Nc2ccc(Cl)cc2C(=O)Nc2ccccc2)cc1
metric_name: inhibition of growth at 10 µM
result_value: < 10%

Using the record for Cc1ccc(C(=O)Nc2ccc(Cl)cc2C(=O)NCc2ccccc2)cc1 , report its inhibition of growth at 10 µM.
21%

====

# Tested on: Malme-3M
# experiment_summary: Growth inhibition of human MALME-3M cells at 10 uM after 48 hrs by SRB assay
# Assay type: functional
# recorded_conditions: read-out: GI
metric_name: inhibition of growth at 10 µM (%)
Numbers only; they are read as %.

smiles_entry: Cc1ccc(C(=O)Nc2ccc(Cl)cc2C(=O)NCc2ccccc2)cc1
unit_descriptor: %
inhibition of growth at 10 µM: 12

# next molecule below
Returns the measured inhibition of growth at 10 µM for the input molecule. Input: Cc1ccc(-c2nc3ccc(Cl)cc3c(=O)n2NC(=O)CNN)cc1
14

====

# Test system: MDA-MB-231
# experiment_summary: Growth inhibition of human MDA-MB-231 cells at 10 uM after 48 hrs by SRB assay
# Assay type: functional
# recorded_conditions: MDA-MB-231, 48 h, read-out: GI
// inhibition of growth at 10 µM lookup, one value per entry
// return numeric value only (unit: %, not printed)

// known answers, use as guide
smiles_entry: Cc1ccc(-c2nc3ccc(Cl)cc3c3nnnn23)cc1
inhibition of growth at 10 µM, %: 27
--
smiles_entry: Cc1ccc(-c2nc3ccc(Cl)cc3c(=O)n2NC(=O)CNN)cc1
inhibition of growth at 10 µM, %: 62
--
smiles_entry: Cc1ccc(C(=O)Nc2ccc(Cl)cc2C(=O)Nc2ccccc2)cc1
inhibition of growth at 10 µM, %: 16
--
smiles_entry: Cc1ccc(C2=Nc3ccc(Cl)cc3C3=NNCC(=O)NN23)cc1
inhibition of growth at 10 µM, %: 11
--
smiles_entry: Cc1ccc(-c2nc3ccc(Cl)cc3c(=O)n2/N=C/c2ccccc2)cc1
inhibition of growth at 10 µM, %: 41

Param item = Cc1ccc(-c2nc3ccc(Cl)cc3c3nnc(S)n23)cc1 ; retrieve measured inhibition of growth at 10 µM.
16
